Here the recorded ATPase inhibition on SK-MEL-28 cells, IC50 is given for each entry.
Biological target: T1, human CD39 (human, UniProt P49961 1-510)
T1 sequence: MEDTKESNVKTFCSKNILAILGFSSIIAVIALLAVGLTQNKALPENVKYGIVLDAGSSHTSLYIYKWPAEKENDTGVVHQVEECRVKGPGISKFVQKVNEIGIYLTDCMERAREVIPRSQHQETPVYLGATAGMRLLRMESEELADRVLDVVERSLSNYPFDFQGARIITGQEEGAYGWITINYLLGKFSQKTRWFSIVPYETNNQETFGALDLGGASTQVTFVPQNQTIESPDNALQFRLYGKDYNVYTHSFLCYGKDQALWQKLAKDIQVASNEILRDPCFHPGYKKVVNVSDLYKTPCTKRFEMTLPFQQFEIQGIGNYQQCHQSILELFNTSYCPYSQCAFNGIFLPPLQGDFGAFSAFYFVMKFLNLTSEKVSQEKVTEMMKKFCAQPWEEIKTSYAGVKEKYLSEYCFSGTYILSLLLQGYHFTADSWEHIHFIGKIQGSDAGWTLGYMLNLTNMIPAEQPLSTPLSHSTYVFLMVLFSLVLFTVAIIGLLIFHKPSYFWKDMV
Assay: cell-based or functional assay
Give a bare numeral; the unit nM is implied.

hu23.H7L1 (antibody, V domains shown) VH: EVQLVQSGAEVKKPGASVKLSCKASGYNLKDTFLHWVKQAPGQGLEWIGRIDPANGNIKYDPKFQGKATLTADTSANTAYLELISLRSEDTAVYYCANSPYYYGSGYRIFDVWGQGTTVTVSS VL: EIVLTQSPATLSLSPGERATLSCSAFSSVNYMHWYQQKPGQAPRLLIYTTSNLASGIPARFSGSGSGTDFTLTISSLEPEDFAVYYCQQRSTYPFTFGQGTKLEIK : 0.147
hu23.H2L2 (antibody, V domains shown) VH: QVQLVQSGAEVKKPGASVKVSCKASGYNLKDTFLHWVRQAPGQGLEWMGRIDPANGNIKYDPKFQGRVTITADTSASTAYMELSSLRSEDTAVYYCANSPYYYGSGYRIFDVWGQGTTVTVSS VL: EIVLTQSPATLSLSPGERATLSCSAFSSVNYMHWYQQKPGQAPRLLIYTTSNLASGIPARFSGSGSGTDYTLTISSLEPEDFAVYYCQQRSTYPFTFGQGTKLEIK : 0.767

Kindly review the next binder as well.
According to the records, this binder hu23.H7L6 (antibody, V domains shown) VH: EVQLVQSGAEVKKPGASVKLSCKASGYNLKDTFLHWVKQAPGQGLEWIGRIDPANGNIKYDPKFQGKATLTADTSANTAYLELISLRSEDTAVYYCANSPYYYGSGYRIFDVWGQGTTVTVSS VL: QIVLTQSPATLSASPGERATLSCSAFSSVNYMHWYQQKPGQAPKLLIYTTSNLASGVPTRFSGSGSGTSYTLTISSMEPEDFAVYYCQQRSTYPFTFGQGTKLEIK displays ATPase inhibition on SK-MEL-28 cells, IC50 of 0.121
